Target: mouse ENT-1 transporter (Mus musculus, UniProt Q9JIM1)
Sequence (Q9JIM1 whole entry): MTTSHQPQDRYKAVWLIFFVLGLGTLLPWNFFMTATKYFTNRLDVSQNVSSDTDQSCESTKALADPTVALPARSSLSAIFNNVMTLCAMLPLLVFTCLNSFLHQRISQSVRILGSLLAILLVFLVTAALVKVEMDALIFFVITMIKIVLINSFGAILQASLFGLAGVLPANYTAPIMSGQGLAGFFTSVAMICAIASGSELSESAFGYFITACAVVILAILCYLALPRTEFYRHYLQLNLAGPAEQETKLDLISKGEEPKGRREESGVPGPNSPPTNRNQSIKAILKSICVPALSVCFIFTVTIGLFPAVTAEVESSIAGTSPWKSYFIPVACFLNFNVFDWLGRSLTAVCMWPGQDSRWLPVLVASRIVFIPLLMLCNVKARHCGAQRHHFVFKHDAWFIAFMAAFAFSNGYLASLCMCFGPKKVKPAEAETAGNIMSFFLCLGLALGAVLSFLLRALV
Experiment: Adenosine transport activity (ENT1, [3H]-adenosine uptake inhibition)
Settings: stable cells expressing mouse ENT-1; [2,8-3H]-adenosine 6 nM, 20 min
measured endpoint: IC50 (nM)

See these solved cases before continuing.
INSERT INTO assay_data (compound, unit_info, numeric_result) VALUES
  ('Cc1ncc(-c2ccc3c(c2)N(c2cncc(N4C(=O)O[C@H]5CC[C@H]54)n2)C(=O)C3(C)C)cn1 (racemic)', 'nM', 24.8),
  ('Cc1ncc(-c2ccc3c(c2)N(c2ccc(C)c(N4CCOCC4)n2)C(=O)C3(C)C)cn1', 'nM', 40.1);

a. CC(=O)Nc1nc(N2C(=O)C(C)(C)c3ccc(-c4cnc(C)nc4)cc32)ccc1C
b. Cc1ncc(-c2ccc3c(c2)N(c2ccc(C)c(N4CCOC4=O)n2)C(=O)C3(C)C)cn1
Task: Between a and b , which one has the lower reported IC50 value? Indicate which entry you chose by stating its label.
Result: b
(b: 32.4 nM, a: 346 nM)
